Test system: HT1080 cells
Test: Cellular assay for IDH1m R132C inhibitors, 2-HG by LC-MS in HT1080 cells
Type: cell-based
Settings: Homo sapiens, HT-1080
Method: The following describes the experimental procedures that can be used to obtain data on column 5 of Table 4. Cells (HT1080 or U87MG) are grown in T125 flasks in DMEM containing 10% FBS, 1× penicillin/streptomycin and 500 ug/mL G418 (present in U87MG cells only). […] At 48 hours, 100 ul of media is removed from each well and analyzed by LC-MS for 2-HG concentrations. […] The plate is then read for luminescence with an integration time of 500 ms. […]
Reported values of IC50 for individual entries
Attribute measured: IC50

>>> experimental_result("N#CC1(c2cc(Nc3nc(NC4CC(F)(F)C4)nc(-c4cncc(C(F)(F)F)n4)n3)ccn2)CC1")
"100 to 1000 nM"
>>> experimental_result("CC(Nc1nc(NC(C)C(F)(F)F)nc(-n2ccc(C(F)(F)F)n2)n1)C(F)(F)F (stereo not shown)")
"< 50 nM"
>>> experimental_result("FC(F)c1csc(-c2nc(NC3CC(F)(F)C3)nc(NC3CC(F)(F)C3)n2)n1")
"< 50 nM"
>>> experimental_result("FC(F)c1cccc(-c2nc(NC3CC(F)(F)C3)nc(NC3CC(F)(F)C3)n2)n1")
"100 to 1000 nM"

Cited source for all entries: patent US10028961B2
